This listing pairs binders with measured rh-Angio/BSA (ratio of colonies recovered).
Biological target: rhAngiostatin (human, UniProt P00747 98-357, limits assumed)
Sequence (P00747 98-357 limits assumed): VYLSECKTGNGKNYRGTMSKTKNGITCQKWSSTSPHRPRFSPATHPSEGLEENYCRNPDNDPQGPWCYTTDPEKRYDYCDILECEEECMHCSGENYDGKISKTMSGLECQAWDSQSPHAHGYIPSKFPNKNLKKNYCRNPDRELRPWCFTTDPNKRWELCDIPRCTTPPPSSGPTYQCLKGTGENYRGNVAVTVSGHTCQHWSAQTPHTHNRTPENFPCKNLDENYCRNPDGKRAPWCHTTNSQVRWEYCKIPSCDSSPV
Assay: phage binding to coated wells; colonies from rhAngiostatin wells divided by those from BSA wells
No end group written: not given here.
Quantity measured: rh-Angio/BSA (ratio of colonies recovered) (ratio)

{"columns": ["Binder", "Measured number"],
 "data": [
  ["CYGAWRVSC (not fully specified (bridges); cysteine pairing not given here; also: displayed on phage) [phage displaying CYGAWRVSC]", 14],
  ["CWSLEFTKC (not fully specified (bridges); cysteine pairing not given here; also: displayed on phage) [phage displaying CWSLEFTKC]", 958],
  ["CWSLELLKC (not fully specified (bridges); cysteine pairing not given here; also: displayed on phage) [phage displaying CWSLELLKC]", 734],
  ["CWSAEWTKC (not fully specified (bridges); cysteine pairing not given here; also: displayed on phage) [phage displaying CWSAEWTKC]", 892],
  ["CRWSSMIWC (not fully specified (bridges); cysteine pairing not given here; also: displayed on phage) [phage displaying CRWSSMIWC]", 11],
  ["CWSLELSKC (not fully specified (bridges); cysteine pairing not given here; also: displayed on phage) [phage displaying CWSLELSKC]", 630],
  ["CWSLEVAKC (not fully specified (bridges); cysteine pairing not given here; also: displayed on phage) [phage displaying CWSLEVAKC]", 1120]
]}
